- TGT: CHI-P1
- METHOD DESCRIPTION: SPR
ASSAY ENDPOINT: Kd (nM)
The figure you give is taken to be in nM; do not add the unit.

Asked: Record request: Kd value, item CCL14 (ligand) TKTESSSRGPYHPSECCFTYTTYKIPRQRIMDYYETNSQCSKPGIVFITKRGHSVCTNPSDKWVQDYIKDMKEN
Given back: 79
